The origin of these recorded values is ChEMBL document CHEMBL1806390.

# experimentNotes: Selectivity index, ratio of CC50 for human C8166 cells to EC50 for wild type HIV1 IIIB infected in C8166 cells
# Format: toxicity, cell-based
# experimentalSetup: read-out: Ratio CC50/EC50
selectivity ratio by entry:
Hey, just send me the number, nothing else.

Consider the following illustrative entries.
[
  {
    "structure": "Cc1cc(S(N)(=O)=O)ccc1NC(=O)COc1ccc(Cl)cc1Oc1cc2ccccc2cc1C",
    "selectivity ratio": 1310
  },
  {
    "structure": "Cc1cc(S(N)(=O)=O)ccc1NC(=O)COc1ccc(F)cc1Oc1ccc2ccccc2c1C",
    "selectivity ratio": 306
  },
  {
    "structure": "Cc1cc(S(N)(=O)=O)ccc1NC(=O)COc1ccc(F)cc1Oc1ccc2cc(C#N)ccc2c1Br",
    "selectivity ratio": 7670
  },
  {
    "structure": "Cc1cc(S(N)(=O)=O)ccc1NC(=O)COc1ccc(Cl)cc1Oc1ccc2ccccc2c1Br",
    "selectivity ratio": 547
  },
  {
    "structure": "Cc1cc(S(N)(=O)=O)ccc1NC(=O)COc1ccc(Cl)cc1Oc1ccc2cc(Br)ccc2c1",
    "selectivity ratio": 128
  }
]

Can you look up the measured selectivity ratio of Cc1cc(S(N)(=O)=O)ccc1NC(=O)COc1ccc(F)cc1Oc1cccc2ccccc12 for me? 240

Try this compound too: Cc1cc(S(N)(=O)=O)ccc1NC(=O)COc1ccc(F)cc1Oc1ccc2ccccc2c1Cl 254

* * *

# Test system: Human immunodeficiency virus 1
# experimentNotes: Antiviral activity against 0.06 MOI Human immunodeficiency virus 1 IIIB infected in C8166 cells assessed as reduction in virus-induced cytopathic effect after 3 days by syncytium reduction assay
# Assay type: functional, organism-based
# experimentalSetup: C8166, 72 h
pEC50: −log10 of the molar value.
Label 1.0 for high-side pEC50 (at or above 7) and 0.0 for low-side pEC50 (below it).

Form field: pEC50 at least 7? Entry: Cc1cn([C@H]2C[C@H](N=[N+]=[N-])[C@@H](CO)O2)c(=O)[nH]c1=O 1.0

* * *

# Test system: Human immunodeficiency virus 1
# experimentNotes: Antiviral activity against 0.06 MOI Human immunodeficiency virus 1 IIIB infected in C8166 cells assessed as reduction in virus-induced cytopathic effect after 3 days by syncytium reduction assay
# Type: functional, organism-based
# experimentalSetup: C8166, 72 h
pEC50: −log10 of the molar value.
Param threshold (7) applies to pEC50; output 1 when value >= threshold, -1 when value < threshold.

Solved entries (count: 3):
[
  {
    "structure": "Cc1cc(S(N)(=O)=O)ccc1NC(=O)COc1ccc(Cl)cc1Oc1ccc2ccccc2c1Cl",
    "categoryLabel": -1
  },
  {
    "structure": "Cc1cc(S(N)(=O)=O)ccc1NC(=O)COc1ccc(F)cc1Oc1c(C)cc2ccccc2c1Cl",
    "categoryLabel": -1
  },
  {
    "structure": "Cc1cc(S(N)(=O)=O)ccc1NC(=O)COc1ccc(Cl)cc1Oc1cc2ccccc2cc1C",
    "categoryLabel": 1
  }
]

Please check the record Cc1cc(S(N)(=O)=O)ccc1NC(=O)COc1ccc(F)cc1Oc1ccc2ccccc2c1C and state if its pEC50 is at or above 7. -1

* * *

# Test system: Human immunodeficiency virus 1
# experimentNotes: Antiviral activity against 0.06 MOI Human immunodeficiency virus 1 IIIB infected in C8166 cells assessed as reduction in virus-induced cytopathic effect after 3 days by syncytium reduction assay
# Assay type: functional, organism-based
# experimentalSetup: C8166, 72 h
assayReadout: EC50 (nM)
Write down the numeric answer in nM and omit the unit.

[
  {
    "structure": "Cc1cc(S(N)(=O)=O)ccc1NC(=O)COc1ccc(F)cc1Oc1cc2ccccc2cc1C",
    "EC50, nM": 140
  },
  {
    "structure": "Cc1cc(S(N)(=O)=O)ccc1NC(=O)COc1ccc(F)cc1Oc1ccc2cccc(F)c2c1",
    "EC50, nM": 92.4
  }
]

Fill in: EC50 of Cc1cc(S(N)(=O)=O)ccc1NC(=O)COc1ccc(F)cc1Oc1ccc2ccccc2c1Br is ___ 85.8

Do the same for Cc1cc(S(N)(=O)=O)ccc1NC(=O)COc1ccc(F)cc1Oc1cccc2ccccc12 please 137
